Experiment: HEK293T cytotoxicity, dose response, cytotoxicity control for miR-122 modulator project, cell-based, activator set, cherry-pick (AID 720690)
Conditions: HEK293T viability, CellTiter-Glo luminescence, 48 h; series mostly up to 26 µM
Measured potencies and affinities stand elsewhere. Active and inactive are the calls of the source.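 How the source made its calls: active means every repeat run showing a signal drop whose fitted half-maximal concentration is at most twice the top tested concentration; inconclusive means repeat runs disagree, or flat partial drop, or poor fit; inactive means the rest.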
measuredMetric: outcome

                                     smiles  measuredmetric    result
0  C/C=C/c1ccc([C@@H]2[C@@H](CO)N[C@@H]2CN(CC)C(=O)CN2CCOCC2)cc1         outcome  inactive
1  COc1cccc(OCc2cc(/C=N/Nc3ccc(C(=O)O)cc3)ccc2OC)c1         outcome  inactive
2  Cc1cc(C)nc(NS(=O)(=O)c2ccc(NC(=S)NC(=O)C3CCCC3)cc2)n1         outcome  inactive
3  CN1C(=O)c2cc(NC(=O)c3cccs3)ccc2OC[C@H]2O[C@H](CC(=O)NCC(F)(F)F)CC[C@H]21         outcome  inactive

Now for a further compound.
# return recorded outcome for entry COc1ccc(OC)c(Nc2cc(C)nc3ccc(C)cc23)c1
inactive
